Test system: BxPC3
method description: Cytotoxicity panel (CC50), BxPC3
Type: cell-based
assay setup: BxPC3
measured quantity: CC50

>>> recorded_value("CC(C)OC(=O)[C@H](C)NP(=O)(OC[C@H]1O[C@@H](n2ccc(=S)[nH]c2=O)[C@](C)(O)[C@@H]1O)Oc1ccccc1 (stereo partly shown) [drawing 447]")
"> 300 µM"

====

target desc: Human DNA pol α (Homo sapiens, UniProt P09884)
Sequence (P09884 whole entry): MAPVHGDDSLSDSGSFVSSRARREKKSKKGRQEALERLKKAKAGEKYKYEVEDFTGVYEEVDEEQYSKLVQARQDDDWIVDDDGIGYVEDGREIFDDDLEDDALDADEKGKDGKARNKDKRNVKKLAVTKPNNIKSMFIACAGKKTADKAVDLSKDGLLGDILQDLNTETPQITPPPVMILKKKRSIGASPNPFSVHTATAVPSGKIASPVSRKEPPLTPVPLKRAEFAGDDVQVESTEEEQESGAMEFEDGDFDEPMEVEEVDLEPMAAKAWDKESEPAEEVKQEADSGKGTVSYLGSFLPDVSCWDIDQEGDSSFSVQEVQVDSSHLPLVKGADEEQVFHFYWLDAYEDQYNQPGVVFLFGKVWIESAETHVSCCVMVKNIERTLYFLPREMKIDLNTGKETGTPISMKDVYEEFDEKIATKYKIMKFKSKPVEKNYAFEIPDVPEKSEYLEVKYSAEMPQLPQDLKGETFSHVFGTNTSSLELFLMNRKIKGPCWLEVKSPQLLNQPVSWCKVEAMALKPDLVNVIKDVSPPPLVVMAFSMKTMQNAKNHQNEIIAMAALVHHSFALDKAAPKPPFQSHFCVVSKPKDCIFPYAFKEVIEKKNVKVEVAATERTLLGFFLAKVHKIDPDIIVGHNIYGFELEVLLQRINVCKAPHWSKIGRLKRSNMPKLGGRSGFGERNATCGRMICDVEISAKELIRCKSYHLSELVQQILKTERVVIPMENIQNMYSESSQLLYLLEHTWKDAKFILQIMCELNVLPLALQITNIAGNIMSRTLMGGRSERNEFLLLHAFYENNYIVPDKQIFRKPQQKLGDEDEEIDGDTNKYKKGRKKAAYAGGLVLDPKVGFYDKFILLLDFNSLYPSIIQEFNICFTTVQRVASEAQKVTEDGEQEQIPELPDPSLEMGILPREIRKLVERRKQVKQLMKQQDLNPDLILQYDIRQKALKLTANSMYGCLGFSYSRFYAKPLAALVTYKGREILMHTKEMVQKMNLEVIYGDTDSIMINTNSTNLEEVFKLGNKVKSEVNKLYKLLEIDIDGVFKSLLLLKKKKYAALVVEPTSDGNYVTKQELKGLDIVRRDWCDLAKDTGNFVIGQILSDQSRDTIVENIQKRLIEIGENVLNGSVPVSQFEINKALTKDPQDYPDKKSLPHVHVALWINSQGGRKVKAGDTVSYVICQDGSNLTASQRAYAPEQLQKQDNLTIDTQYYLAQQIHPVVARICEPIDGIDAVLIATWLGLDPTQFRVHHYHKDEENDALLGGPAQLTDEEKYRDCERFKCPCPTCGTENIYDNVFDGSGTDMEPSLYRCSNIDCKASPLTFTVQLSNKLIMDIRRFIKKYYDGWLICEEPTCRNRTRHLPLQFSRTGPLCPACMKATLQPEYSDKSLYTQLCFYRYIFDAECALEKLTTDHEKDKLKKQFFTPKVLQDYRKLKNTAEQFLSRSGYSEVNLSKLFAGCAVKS
method description: Human DNA Polymerase Inhibition Assay, pol α
Assay type: biochemical
measured quantity: IC50

>>> recorded_value("C[C@@]1(O)[C@H](O)[C@@H](COP(=O)(O)OP(=O)(O)OP(=O)(O)O)O[C@H]1n1ccc(=O)[nH]c1=S")
"> 1000 µM"

====

method description: Anti-Dengue assay, toxicity (XTT) in Vero cells
assay setup: monkey
Measured CC50 accompanies every entry in the list below.
measured quantity: CC50

>>> recorded_value("CC(C)OC(=O)[C@H](C)NP(=O)(OC[C@H]1O[C@@H](n2ccc(=O)[nH]c2=S)[C@](C)(O)[C@@H]1O)Oc1ccccc1 (some centres unmarked) [drawing 474]")
"> 100 µM"
>>> recorded_value("C[C@@]1(O)[C@H](O)[C@@H](CO)O[C@H]1n1ccc(=O)[nH]c1=S [drawing 473]")
"> 100 µM"
